Test System: GDP-loaded HIS-KRAS (G12D, aa 1-169) (Homo sapiens, UniProt P01116, G12D)
Construct: GDP-loaded HIS-KRAS (G12D, aa 1-169)
Sequence (P01116 1-169 isoform P01116-2 G12D): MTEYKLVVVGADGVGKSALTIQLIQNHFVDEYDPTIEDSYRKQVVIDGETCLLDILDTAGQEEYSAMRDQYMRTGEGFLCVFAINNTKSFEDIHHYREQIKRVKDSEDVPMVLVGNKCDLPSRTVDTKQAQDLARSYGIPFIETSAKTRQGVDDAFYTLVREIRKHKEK
Test: SOS1 catalyzed nucleotide exchange assay
Condition: SOS1 ExD, TR-FRET, 4 hours at 25° C.
Measured Quantity: IC50
Please format your answer as a value with the unit trailing.

Use these answered entries as a reference point.
Q: Hi! What's the reported IC50 for C#Cc1cccc2cc(O)cc(-c3c(Cl)cc4c(N5CC6CCC(C5)N6)nc(OC[C@@]56CCCN5C[C@H](F)C6)nc4c3F)c12 (single isomer, unassigned) [Compound 72A] on GDP-loaded HIS-KRAS (G12D, aa 1-169) (Homo sapiens, UniProt P01116, G12D)?
Result: 85.9 nM

Q: Given the entry C#Cc1cccc2cc(O)cc(-c3c(CCC#N)cc4c(N5CC6CCC(C5)N6)nc(OCC5(CN6CCOCC6)CC5)nc4c3F)c12 [Compound 44] , what IC50 was observed with GDP-loaded HIS-KRAS (G12D, aa 1-169) (Homo sapiens, UniProt P01116, G12D)?
Result: 2.14 nM

Q: Give GDP-loaded HIS-KRAS (G12D, aa 1-169) (Homo sapiens, UniProt P01116, G12D) IC50 for Oc1cc(Cl)c(C2CC2)c(-c2c(Cl)cc3c(N4CC5CCC(C4)N5)nc(OCC4(CN5CCOCC5)CC4)nc3c2F)c1 [Compound 133]
Result: 7.82 nM

Q: Notebook entry, GDP-loaded HIS-KRAS (G12D, aa 1-169) (Homo sapiens, UniProt P01116, G12D) assay: IC50 of C#Cc1cccc2cc(O)cc(-c3c(Cl)cc4c(N5CC6CCC(C5)N6)nc(OCC5(CN6CCOCC6)CC5)nc4c3F)c12 (single isomer, unassigned) [Compound 35B] = ?
Result: 5.94 nM

Q: Please provide the recorded IC50 for C#Cc1cccc2cc(O)cc(-c3c(F)cc4c(N5CC6CCC(C5)N6)nc(OCC5(CN6CCS(=O)(=O)CC6)CC5)nc4c3F)c12 [Compound 83] , tested on GDP-loaded HIS-KRAS (G12D, aa 1-169) (Homo sapiens, UniProt P01116, G12D).
Result: 18 nM

Moving on to the next molecule.
Q: Find the measured IC50: item C#Cc1cccc2cc(O)cc(-c3cc4nc(OCC5(CN6CCOCC6)CC5)nc(N5CC6CCC(C5)N6)c4cc3OC)c12 [Compound 120] , target or system GDP-loaded HIS-KRAS (G12D, aa 1-169) (Homo sapiens, UniProt P01116, G12D).
Result: 37.4 nM

====

Tested on: AGS
Test: Cell growth inhibition assay (AGS)
Assay type: cell-based
Condition: Homo sapiens, 144 h, 6 days incubation, CellTiter-Glo
pIC50: −log10 of the molar value.
Give True when the value for pIC50 is at least 7. Give False when it is less.

Some solved entries appear below for comparison.
Q: Hi team, for C#Cc1cccc2cc(O)cc(-c3c(C)cc4c(N5CC6CCC(C5)N6)nc(OCC5(CN6CCOCC6)CC5)nc4c3F)c12 [Compound 40] , is the recorded pIC50 at or above 7?
Result: True

Q: State whether the measured pIC50 reaches 7, counting equality as reaching it, for C#Cc1cccc2cc(O)cc(-c3cc4nc(OCC5(CN6CCOCC6)CC5)nc(N5CC6CCC(C5)N6)c4cc3OC)c12 [Compound 120]
Result: True

Q: Hi team, for C#Cc1cccc2cc(O)cc(-c3c(C(F)(F)F)cc4c(N5CC6CCC(C5)N6)nc(OCC5(CN6CCOCC6)CC5)nc4c3F)c12 [Compound 98] , is the recorded pIC50 at or above 7?
Result: True

Q: Test whether the compound C#Cc1cccc2cc(O)cc(-c3ccc4c(N5CC6CCC(C5)N6)nc(OCC5(CN6CCOC[C@H]6C)CC5)nc4c3F)c12 [Compound 115] records pIC50 of 7 or higher.
Result: True

Continuing:
Q: Could you please find out whether C#Cc1cccc2cc(O)cc(-c3ccc4c(N5CC6CCC(C5)N6)nc(OC[C@@]56CCCN5C[C@H](F)C6)nc4c3)c12 [Compound 96] has pIC50 that meets 7 or exceeds it?
Result: False

Q: Is pIC50 at least 7? Consider C#Cc1cccc2cc(O)cc(-c3ccc4c(N5CC6CCC(C5)N6)nc(OCC5(CN6CCC(OC)CC6)CC5)nc4c3F)c12 [Compound 117]
Result: True

Q: Would you say C#Cc1c(OC)ccc2cc(O)cc(-c3ccc4c(N5CC6CCC(C5)N6)nc(OCC5(CN6CCOCC6)CC5)nc4c3F)c12 [Compound 94] shows pIC50 at minimum 7?
Result: False

Q: Does pIC50 meet or surpass 7 for C#Cc1c(F)ccc2cc(O)cc(-c3ccc4c(N5CC6CCC(C5)N6)nc(OCC5(CN6CCC(C(=O)O)CC6)CC5)nc4c3F)c12 [Compound 77] ?
Result: False

Q: Kindly determine if pIC50 recorded for C#Cc1cccc2cc(O)cc(-c3c(F)cc4c(N5CC6CCC(C5)N6)nc(OCC5(CN6CC[S+]([O-])CC6)CC5)nc4c3F)c12 [Compound 89] is above or exactly 7.
Result: True

Q: Would you say C#Cc1cccc2cc(O)cc(-c3ccc4c(N5CC6CCC(C5)N6)nc(OCC5(CN6CCO[C@@H](C)C6)CC5)nc4c3F)c12 [Compound 80] shows pIC50 at minimum 7?
Result: True

====

Test System: GDP-loaded HIS-KRAS (G12D, aa 1-169) (Homo sapiens, UniProt P01116, G12D)
Construct: GDP-loaded HIS-KRAS (G12D, aa 1-169)
Test: SOS1 catalyzed nucleotide exchange assay
Condition: SOS1 ExD, TR-FRET, 4 hours at 25° C.
Each entry below carries its recorded IC50.
Just the number please, in nM, no unit attached.

Worked cases, answers included:
Q: Record request: IC50 value, item `C#Cc1cccc2cc(O)cc(-c3ccc4c(N5CC6CCC(C5)N6)nc(OCC5(CN6CCO[C@H](C)C6)CC5)nc4c3F)c12`
Result: 14.4

Q: Recorded IC50 of `C#Cc1cccc2cc(O)cc(-c3cc4nc(OC[C@@]56CCCN5C[C@H](F)C6)nc(N5CC6CCC(C5)N6)c4cc3Cl)c12` , please.
Result: 7.64

Q: Returns the measured IC50 for the input molecule. Input: C#Cc1cccc2cc(O)cc(-c3c(C)cc4c(N5CC6CCC(C5)N6)nc(OCC5(CN6CCOCC6)CC5)nc4c3F)c12 (single isomer, unassigned) [Compound 40A]
Result: 92.1

Q: Dear colleague, I am looking for the recorded IC50 of the following molecule: `Oc1cc(-c2ccc3c(N4CC5CCC(C4)N5)nc(OCC4(CN5CCOCC5)CC4)nc3c2F)c2cccc(F)c2c1`
Result: 56.9

Q: Which IC50 value is on record for C#Cc1cccc2cc(O)cc(-c3c(F)cc4c(N5CC6CCC(C5)N6)nc(OCC5(CN6CCOCC6)CC5)nc4c3F)c12 (single isomer, unassigned) [Compound 41A] ?
Result: 120

***
Q: State the recorded IC50 for this entry: `CCc1cccc2cc(O)cc(-c3c(C4CC4)cc4c(N5CC6CCC(C5)N6)nc(OCC5(CN6CCOCC6)CC5)nc4c3F)c12`
Result: 322

Q: If you can, please state the reported IC50 value of `C#Cc1cccc2cc(O)cc(-c3ccc4c(N5C6CNCC5C6)nc(OCC5(CN6CCOCC6)CC5)nc4c3F)c12` .
Result: 146

Q: Which IC50 is reported for this molecule? C#Cc1cccc2cc(O)cc(-c3c(C(F)(F)F)cc4c(N5CC6CCC(C5)N6)nc(OCC5(CN6CCOCC6)CC5)nc4c3F)c12 [Compound 98]
Result: 1.29

Q: I am curious: what IC50 value has been reported for `C#Cc1cccc2cc(O)cc(-c3c(F)cc4c(N5CC6CCC(C5)N6)nc(OCC5(CN6CC[S+]([O-])CC6)CC5)nc4c3F)c12` ?
Result: 20.5

Q: Requested read-out: IC50. Entry: `C#Cc1cccc2cc(O)cc(-c3ccc4c(N5CC6CCC(C5)N6)nc(OCC5(CN6CCC(OC)CC6)CC5)nc4c3F)c12`
Result: 17.1

====

# reported pIC50; entries follow
Test System: GppNp-loaded HIS-KRAS (G12D, aa 1-169) / cRAF RBD (Homo sapiens, UniProt P01116, G12D)
Construct: GppNp-loaded HIS-KRAS (G12D, aa 1-169)
Test: GTP-KRAS and cRAF interaction assay
Condition: HTRF, 2 hours at 25° C.
Remember, pIC50 is on a log scale: it is -log10 of the molar concentration.

Examples with answers:
Q: State the recorded pIC50 for this entry: Oc1cc(-c2ccc3c(N4CC5CCC(C4)N5)nc(OCC4(CN5CCOCC5)CC4)nc3c2F)c2c(Cl)cccc2c1 [Compound 88]
Result: 6.83

Q: Which measured pIC50 value corresponds to C#Cc1cccc2cc(O)cc(-c3c(C4CC4)cc4c(N5CC6CCC(C5)N6)nc(OCC5(CN6CCOCC6)CC5)nc4c3F)c12 [Compound 38] ?
Result: 6.90

Q: Looking for the measured pIC50 of C#Cc1c(F)ccc2cc(O)cc(-c3ccc4c(N5CC6CCC(C5)N6)nc(OCC5(CN6CCC(C(=O)O)CC6)CC5)nc4c3F)c12 [Compound 77] , can you help?
Result: 7.13

Q: // returns reported pIC50 for input C#Cc1cccc2cc(O)cc(-c3c(Cl)cc4c(N5CC6CCC(C5)N6)nc(OCC5(CN6CCOCC6)CC5)nc4c3F)c12 (single isomer, unassigned) [Compound 35B]
Result: 6.95

--- query ---
Q: Entry under review: C#Cc1cccc2cc(O)cc(-c3ccc4c(N5CC6CCC(C5)N6)nc(OCC5(CN6CC[C@@H](F)C6)CC5)nc4c3F)c12 [Compound 114] . Reported pIC50?
Result: 6.92
